# System: MOLT-4
# Test name: NCI tumour cell line growth inhibition, 48 h
Calls of active or inactive are those of the source. No stated cut-off is given here; in the data, active = GI50 up to about 1.1 µM and inactive = higher.
Hi there, I'd appreciate the recorded GI50 for every entry that follows.

Entry Cc1cc2c(c(C(=O)NCCC(=O)N[C@@H](C)C(=O)OCc3ccccc3)c1)Oc1c(cc(C)cc1C(=O)NCCC(=O)N[C@@H](C)C(=O)OCc1ccccc1)S2 — recorded GI50 = > 100 µM (inactive)

# GI50 (compound: COc1ccc(-c2nc3c(nc2-c2ccc(OC)cc2)N(C)S(=O)(=O)N=C3N)cc1 ) is 11.9 µM (inactive)

Item: Cc1ccc(S(=NS(=O)(=O)c2ccc(C)cc2)c2ccc(C)cc2)cc1 | GI50: > 10 µM (inactive)

GI50 reading for C[n+]1c(-c2ccc(/C=N/NC(=S)N/N=C/c3ccc(-c4cn5ccsc5[n+]4C)cc3)cc2)cn2ccsc21 : > 100 µM (inactive)

GI50 for O=c1cc(CN2CCCCC2)nc2ccc3c(O)cc(CN4CCCCC4)nc3n12 is 89.7 µM (inactive)

GI50 for CC(C)(Oc1ccc(-c2cccc3ccccc23)cc1)C(=O)O is > 100 µM (inactive)

What the record says about COc1cccc(NC(=O)CC(=O)NN2C(=O)/C(=C/c3ccc(N(CCC#N)CCC#N)cc3)N=C2c2cc([N+](=O)[O-])ccc2Cl)c1 : GI50 is 3.53 µM (inactive)

Entry O=C1C(N2C(=O)c3ccccc3C2=O)CN1C(COCc1ccccc1)c1ccc(OCc2ccccc2)cc1 (stereo not drawn) — recorded GI50 = > 100 µM (inactive)

----------
# Tested on: SK-OV-3
# Test name: NCI tumour cell line growth inhibition, 48 h
The source made the active and inactive calls. Cut-off read from the data, not from the text of the source: active = GI50 up to about 1.1 µM and inactive = higher.
Could you please report measured GI50 for the items listed next?

Entry COc1cccc(CCn2c(N)c(-c3cc(Cl)cc(Cl)c3)c3ccc([N+](=O)[O-])cc3c2=O)c1 — recorded GI50 = 8.89 µM (inactive)

CC(=O)N(CCCCNC(=O)C(F)(F)F)CCCNC(=O)C(F)(F)F yielded GI50 of > 100 µM (inactive)

The recorded GI50 for entry Cc1ccc(S(=O)(=O)NC2(C=O)CCC(C(C)(C)C)CC2)cc1 (stereo not given) equals > 100 µM (inactive)

Short answer for COc1c(OC2OC(CO)C(O)C(O)C2O)cc2c(c1OC)-c1ccc(OC)c(=O)cc1[C@@H](NC(C)=O)CC2 (stereo not given in full) : GI50 was > 100 µM (inactive)

// sample O=C1C=CC(=O)c2cc(Sc3ccccc3)c(=O)c(Sc3ccccc3)cc21 , its GI50 was 43.2 µM (inactive)

----------
Consider the following compounds; for each one, report its GI50.
# System: SF-295
# Test name: NCI tumour cell line growth inhibition, 48 h
Activity calls are given as the source filed them. Rule as the data show it: active = GI50 up to about 1.1 µM and inactive = higher.

Kindly note the recorded GI50 for CCCc1nnc2sc(COc3ccc(OCc4nn5c(CCC)nnc5s4)c(Cl)c3)nn12 , which is 20.8 µM (inactive)

Looking up C=CCN(c1cc(OC)c(NC(C)=O)cc1[N+](=O)[O-])S(C)(=O)=O , I see its GI50 listed as > 100 µM (inactive)

Reported GI50 for O=C(O)Cc1ccc(N2N=C(c3ccccc3)CC2=O)cc1 was > 100 µM (inactive)

// sample O=C(OCCO)C1CC2CC1C1(C2)OCCO1 (stereo unspecified) , its GI50 was > 100 µM (inactive)

Note to self: GI50 recorded for COc1cccc(/C=C/c2cnc3ccccc3n2)c1OC was 46.1 µM (inactive)

// recorded GI50 for O=C(O)c1cccc(Nc2c(C(=O)O)cccc2[N+](=O)[O-])c1 : > 100 µM (inactive)

GI50 measured on C[n+]1c2ccccc2c(CNCC(=O)O)c2ccccc21 = 5.07 µM (inactive)

Entry COc1ccc(-c2cc(-c3ccccc3)c3c(n2)-c2ccccc2NC(=O)C3)cc1 ; GI50 = 47.5 µM (inactive)

get_value(item= Cc1c(-c2ccccc2)nn2cc(-c3ccccc3)nnc12 , readout=GI50) returns 34.8 µM (inactive)

Form: compound = CC(C)(C)c1cc(Br)c(O)c(CN(Cc2cc(C(C)(C)C)cc(Br)c2O)C2CCCCC2)c1 ; GI50 = 12.7 µM (inactive)

For reference, reported GI50 for c1ccc2c(c1)CCN2CCN1CCc2ccccc21 stands at > 10 µM (inactive)

Data point: O=[N+]([O-])c1ccc(C2CC(c3ccccc3Cl)=Nc3ccccc3[S+]2[O-])cc1 (stereo unspecified) ; GI50 = 5.55 µM (inactive)

The value of GI50 measured for the compound CCOC(=O)C(C)c1nc2cc3cccnc3c(Cl)c2[nH]c1=O (stereo unspecified) turned out to be > 100 µM (inactive)

The recorded GI50 for Cc1ccc2c3c1O[C@H]1c4[nH]c5ccccc5c4C[C@@]4(O)[C@@H](C2)N(CC2CC2)CC[C@]314 is 17.4 µM (inactive)

Query CCCC(S(=O)(=O)c1ccccc1)S(=O)(=O)c1ccccc1 yields GI50 of 83.4 µM (inactive)

The reported GI50 of the compound C[N+](C)(C)CC(=O)N/N=C(/C=C/c1ccccc1)CC1OC(=O)c2ccccc21 (stereo unspecified) was > 10 µM (inactive)

Measured GI50 of COC1=CC(C2c3cc4c(cc3[C@@H](Nc3ccc(F)cc3)C3COC(=O)[C@H]23)OCO4)=CC(=O)C1=O (stereo partly specified) : 3.21 µM (inactive)

So, CCOC(=O)[C@H]1Nc2ccc(O)cc2C2c3ccccc3CC21 (stereo partly specified) ? Its GI50 was > 10 µM (inactive)

// O=C1CN(c2ccccc2)C(=O)CN1NCNN1CC(=O)N(c2ccccc2)CC1=O : GI50 value = > 100 µM (inactive)

For record O=c1c2cc(Br)ccc2nc(-c2ccccc2Cl)n1NCC1(O)OCC(O)C(O)C1O (stereo unspecified) the listed GI50 is > 100 µM (inactive)

// recorded GI50 for CSc1ccc(/C=C2\N=C(c3ccccc3)N(c3nc4ccc(Sc5ccccc5)cc4[nH]3)C2=O)cc1 : 14.3 µM (inactive)

response.value for NC(=O)c1cc2ccccc2c(/N=N/c2ccccc2)c1O (field: GI50) = > 100 µM (inactive)

The compound Cn1cc(C=C(C#N)C#N)c(=O)n(C)c1=O showed GI50 equal to > 100 µM (inactive)

In plain terms, O=C1CCC2C(O)c3cc4c(cc3C(c3ccc5c(c3)OCO5)N12)OCO4 (stereo unspecified) has a documented GI50 of 49.2 µM (inactive)

Just so you know, measured GI50 for Nc1nc(Cl)cc(NCC2(CO)CC(CCCc3ccccc3)C2)n1 (stereo unspecified) came out at > 33.2 µM (inactive)

// GI50 lookup, compound = COc1ccc(Nc2nc3c(N)cc(C(F)(F)F)cc3nc2-c2ccccc2)cc1 , result: 71.3 µM (inactive)

GI50 reading for Cc1cc2c(cc1Cl)Sc1nnc(Nc3ccccc3)n1S2(=O)=O : 13.3 µM (inactive)

// field: GI50; key: N#CC(C#N)=C/C=C/c1ccccc1[N+](=O)[O-] ; value = > 10 µM (inactive)

Note to self: GI50 recorded for CC1(C)OCC(CO)(Nc2nc(N3CC3)nc(N3CC3)n2)CO1 was 2.96 µM (inactive)

GI50 reported for this compound CC1CC[C@]2(C(=O)O)CCC3(C)C(=C2[C@H]1C)C=CC1[C@@]2(C)CC[C@H](O)C(C)(C)C2CC[C@]13C (stereo partly specified) : 19.9 µM (inactive)

Form: compound = COC(=O)C(C(=O)C(=O)Nc1ccc(C(F)(F)F)cc1[N+](=O)[O-])c1csc(-n2nc(-c3ccccc3)cc2-c2ccccc2)n1 (stereo unspecified) ; GI50 = > 100 µM (inactive)

// sample Cc1cc(C)c2nccc(NCCCN(C)C)c2c1[N+](=O)[O-] , its GI50 was 26.1 µM (inactive)

Measured GI50, C/C(=N/Nc1ccc([N+](=O)[O-])cc1[N+](=O)[O-])C(CC(C(=O)Nc1ccccc1C)/C(C)=N\Nc1ccc([N+](=O)[O-])cc1[N+](=O)[O-])C(=O)Nc1ccccc1C (stereo unspecified) : 16.1 µM (inactive)

Documented GI50 of C#C/C=C\CCCCCCCCCCCCCC/C=C\CCCCC#CC(O)C#CCCCC/C=C\CCCCCC/C=C/C(O)C#C (stereo unspecified) : 17.7 µM (inactive)

Sure, the documented GI50 for CCc1cccc(CC)c1NC(=O)C1=C(C)NC(C)=C(C(=O)Nc2c(CC)cccc2CC)C1c1ccc2c(c1)OCO2 is 13.9 µM (inactive)

Record COc1ccc(C(O)CNC(=O)c2ccccc2)cc1 (stereo unspecified) , field GI50: > 100 µM (inactive)

// GI50 lookup, compound = CC[C@@]1(O)C(=O)OCc2c1c(Cl)c1n(c2=O)Cc2cc3ccccc3nc2-1 , result: 1.22 µM (inactive)

According to the records, this compound CCC1=[N+](CC)CCN1CC displays GI50 of > 100 µM (inactive)

Field GI50 (entry COc1cc(/C=C2\C(=O)N(c3ccccc3)C(c3ccccc3)S2(=O)=O)cc(OC)c1OC (stereo unspecified) ) reads > 100 µM (inactive)

compound C=CCc1cc(-c2cc(CC=C)c(O)c(CNC)c2)cc(CNC)c1O , GI50 observed: 16.9 µM (inactive)

# GI50 (compound: CN1c2ccccc2C(=O)Nc2cnc(Cl)nc21 ) is 46.3 µM (inactive)

Sourced from ChEMBL document CHEMBL1201862
